# protocol_summary: blockers of ER-stress CHOP reporter expression – cell-based, unfolded protein response, luciferase reporter, primary screen (AID 2732)
# measurement_context: CHO-K1 CHOP-promoter luciferase, tunicamycin-induced, 15-18 h; at 10 µM; stronger effect = higher value
Screen size: about 220,000 compounds; about 8,200 (3.7%) were called active. This excerpt belongs to a sample that is enriched for actives.
Record fulfilled whenever inhibition is at 20% or higher; record not fulfilled when lower.

Some entries whose results are on file:
| molecule | answer_label |
| --- | --- |
| Cc1nn(-c2ccccc2)c(C)c1C(=O)OCC(=O)NC(=O)NC1CCCCC1 | fulfilled |
| CCCOc1ccc(Cc2c(Cl)nc(SC)nc2NC)cc1 | fulfilled |
| Cc1cc2cc(CN(Cc3cccs3)Cc3nnnn3CC3CCCO3)c(=O)[nH]c2cc1C (centres undefined) | fulfilled |
| COCCN1C2=C(COC(C)(C)C2)C(=S)NC1c1ccccc1 (centres undefined) | not fulfilled |
| C/C(Cc1ccccc1)=N\NC(=O)CNC(=O)c1ccccc1Cl | not fulfilled |

Now let's try a different one.
Is inhibition at least 20%? Consider N/C(=N\OC(=O)Nc1ccc(Cl)c(Cl)c1)c1ncc(C(F)(F)F)cc1Cl
fulfilled

Recorded values, source PubChem BioAssay AID2732.
